# system.under.test: the molecule itself
# assay.summary: AUC
Catalogue of stoichiometry N values
quantity: stoichiometry N

>>> readout_value("HsCNNM4 extracellular domain E95Q (Jalili syndrome mutation) (domain or fragment, human, UniProt Q6P4Q7 44-175, looked up) GTIVGMRLASCNKSCGTNPDGIIFVSEGSTVNLRLYGYSLGNISSNLISFTQVDDAETLHKSTSCLELTKDLVVQQLVNVSRGNTSGVLVVLTKFLRRSESMKLYALCTRAQPDGPWLKWTDKDSLLFMVEE")
2
>>> readout_value("HsCNNM4 extracellular domain M145T (Jalili syndrome mutation) (domain or fragment, human, UniProt Q6P4Q7 44-175, looked up) GTIVGMRLASCNKSCGTNPDGIIFVSEGSTVNLRLYGYSLGNISSNLISFTEVDDAETLHKSTSCLELTKDLVVQQLVNVSRGNTSGVLVVLTKFLRRSESTKLYALCTRAQPDGPWLKWTDKDSLLFMVEE")
2
>>> readout_value("HsCNNM4 extracellular domain A149S (Jalili syndrome mutation) (domain or fragment, human, UniProt Q6P4Q7 44-175, looked up) GTIVGMRLASCNKSCGTNPDGIIFVSEGSTVNLRLYGYSLGNISSNLISFTEVDDAETLHKSTSCLELTKDLVVQQLVNVSRGNTSGVLVVLTKFLRRSESMKLYSLCTRAQPDGPWLKWTDKDSLLFMVEE")
2
>>> readout_value("HsCNNM4 extracellular domain N85D (Jalili syndrome mutation) (domain or fragment, human, UniProt Q6P4Q7 44-175, looked up) GTIVGMRLASCNKSCGTNPDGIIFVSEGSTVNLRLYGYSLGDISSNLISFTEVDDAETLHKSTSCLELTKDLVVQQLVNVSRGNTSGVLVVLTKFLRRSESMKLYALCTRAQPDGPWLKWTDKDSLLFMVEE")
2
>>> readout_value("HsCNNM4 extracellular domain (residues 44–175) R50A (domain or fragment, human, UniProt Q6P4Q7 44-175, looked up) GTIVGMALASCNKSCGTNPDGIIFVSEGSTVNLRLYGYSLGNISSNLISFTEVDDAETLHKSTSCLELTKDLVVQQLVNVSRGNTSGVLVVLTKFLRRSESMKLYALCTRAQPDGPWLKWTDKDSLLFMVEE")
2
>>> readout_value("HsCNNM4 extracellular domain (residues 44–175), wild type (domain or fragment, human, UniProt Q6P4Q7 44-175, looked up) GTIVGMRLASCNKSCGTNPDGIIFVSEGSTVNLRLYGYSLGNISSNLISFTEVDDAETLHKSTSCLELTKDLVVQQLVNVSRGNTSGVLVVLTKFLRRSESMKLYALCTRAQPDGPWLKWTDKDSLLFMVEE")
2
